test system: plasma aldosterone levels; assay: Suppression of plasma aldosterone in ACTH-stimulated rats; type: in vivo, Wistar rats; conditions: 4 mg/kg p.o.; plasma level 2 h after dosing relative to 1 h prior to dosing; rat
Measured Aldosterone levels (% change at 2 h) values are reported for all entries that follow.
Write the value in % as a bare number.

Worked examples, 3 compounds total:
In [3]: df
Out[3]:
                                   compound                    measured_attribute  reported
0  CC1(c2ccc(C#N)cc2)SCCn2cncc21 (stereo not shown) [Example 4]  Aldosterone levels (% change at 2 h)       −19
1  N#Cc1ccc(C2SCCn3cncc32)cc1 (stereo not shown) [Example 2]  Aldosterone levels (% change at 2 h)       −56
2  CC(=O)c1ccc(C2OCCn3cncc32)cc1 (stereo not shown) [Example 18]  Aldosterone levels (% change at 2 h)       −33

// next entry
Task item: Output Aldosterone levels (% change at 2 h) of N#Cc1cccc(C2OCCn3cncc32)c1 (stereo not shown) [Example 19]
Reply: −65
